- target: T1, Rv0078 (Mycobacterium tuberculosis, UniProt O53623 1-201)
- T1 sequence: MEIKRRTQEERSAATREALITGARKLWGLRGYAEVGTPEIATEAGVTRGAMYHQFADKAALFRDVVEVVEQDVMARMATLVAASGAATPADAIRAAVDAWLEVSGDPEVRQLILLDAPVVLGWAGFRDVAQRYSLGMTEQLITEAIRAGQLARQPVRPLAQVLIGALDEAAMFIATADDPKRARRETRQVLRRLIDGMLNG
- methodNotes: ITC; […], room temperature 30 min; […], buffer not stated
- assayContext: protein: recombinant; tags: C-terminal His6; chain copies: 4
measuredProperty: pKd
For clarity, pKd is expressed as the negative log10 of concentration in mol/L.

Quick one: pKd for +13/-8 DNA probe (ITC) (dsDNA) DNA 1: TTACAAGCAGACTGCCGGTAA DNA 2: TTACCGGCAGTCTGCTTGTAA ?
6.45
